Origin of the recorded values: patent US12662491B2

Biological target: Zcchc11 enzyme (Homo sapiens)
Construct: made in house; host or cells: HEK293 cells (Zcchc11); E. coli Rosetta II (LIN28A)
Sequence (Q5TAX3 212-1420): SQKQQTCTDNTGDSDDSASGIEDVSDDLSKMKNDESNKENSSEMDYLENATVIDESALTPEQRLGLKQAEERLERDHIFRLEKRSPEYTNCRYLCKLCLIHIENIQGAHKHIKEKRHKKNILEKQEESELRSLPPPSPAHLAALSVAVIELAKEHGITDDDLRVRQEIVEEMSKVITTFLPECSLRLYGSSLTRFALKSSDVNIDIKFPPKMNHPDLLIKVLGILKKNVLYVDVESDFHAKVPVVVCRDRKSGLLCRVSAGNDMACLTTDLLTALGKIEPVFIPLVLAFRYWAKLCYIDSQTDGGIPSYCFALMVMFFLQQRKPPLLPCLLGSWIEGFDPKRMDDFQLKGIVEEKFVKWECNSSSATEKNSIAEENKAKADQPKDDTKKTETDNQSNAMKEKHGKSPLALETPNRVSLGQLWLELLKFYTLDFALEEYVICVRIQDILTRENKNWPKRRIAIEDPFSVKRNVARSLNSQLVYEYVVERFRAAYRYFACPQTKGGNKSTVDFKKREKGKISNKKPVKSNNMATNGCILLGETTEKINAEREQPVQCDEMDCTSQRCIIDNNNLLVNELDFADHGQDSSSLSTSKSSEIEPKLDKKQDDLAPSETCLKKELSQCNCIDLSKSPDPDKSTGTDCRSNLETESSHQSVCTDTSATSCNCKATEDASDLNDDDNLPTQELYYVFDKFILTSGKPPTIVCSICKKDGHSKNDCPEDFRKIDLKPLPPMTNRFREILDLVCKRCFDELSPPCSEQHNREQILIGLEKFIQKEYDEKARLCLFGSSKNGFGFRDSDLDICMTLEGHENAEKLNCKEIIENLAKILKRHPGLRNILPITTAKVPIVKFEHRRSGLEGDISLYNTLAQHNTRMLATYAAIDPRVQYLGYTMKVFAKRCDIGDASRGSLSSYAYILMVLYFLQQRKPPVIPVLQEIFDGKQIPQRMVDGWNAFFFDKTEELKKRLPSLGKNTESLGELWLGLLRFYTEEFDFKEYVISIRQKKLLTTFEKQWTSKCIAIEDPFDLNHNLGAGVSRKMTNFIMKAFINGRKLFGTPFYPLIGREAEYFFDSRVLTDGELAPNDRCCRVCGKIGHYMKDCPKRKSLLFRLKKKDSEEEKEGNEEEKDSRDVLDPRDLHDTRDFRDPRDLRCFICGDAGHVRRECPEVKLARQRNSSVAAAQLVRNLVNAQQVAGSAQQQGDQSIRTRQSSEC
Assay: TUTase assay (Zcchc11 assay, Lin28a-dependent polyuridylation of pre-let-7)
Type: biochemical
Conditions: Lin28a-dependent Zcchc11 (Z11) TUTase activity; read-out: Potency Lin28a-dep Z11 IC50
Readings of IC50 for the listed compounds

Q) # query: IC50 of entry CC1CCN(c2cc3c(cc2Cl)c(=O)c(C(=O)O)cn3-c2ccc(N3CC(N(C)C)C3)nc2)C1COc1nc(N(C)C)ccc1Cl (stereo not drawn)
A) ≤ 1000 nM

Q) # query: IC50 of entry CN(C)C1CN(c2ccc(-n3cc(C(=O)O)c(=O)c4cc(Cl)c(N5CCC[C@@H]5COc5cnccc5Cl)cc43)cn2)C1
A) ≤ 1000 nM

Q) # query: IC50 of entry O=C(O)c1cn(-c2ccc(F)c(O)c2)c2cc(N3CCC[C@@H]3COc3ncccc3Cl)c(Cl)cc2c1=O
A) ≤ 1000 nM
